All values here come from PubChem BioAssay.

- assay-notes: Plasmodium falciparum growth inhibition, primary screen, strain 3D7, DAPI fluorescence, 100 nL (AID 1184);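 note: parasites grown inside human red blood cells in medium with human serum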
- measurement-context: P. falciparum 3D7 growth, 3 d, higher = more signal
Classification field: TRUE = z-score at or over -2; FALSE = z-score under -2.

Has [N-]=[N+]=NCc1ccccc1[C@@H]1OC(c2ccc(OCCCO)cc2)=N[C@]1(Cc1ccccc1)C(N)=O a recorded z-score greater than or equal to -2?
FALSE

Has CN1C(=O)C2C=CC(C(O)c3ccccc3)N(N(c3ccccc3)c3ccccc3)C2C1=O (configuration not stated) a recorded z-score greater than or equal to -2?
TRUE

Has C=C(/C(=C/C[C@H](OC(C)=O)c1ccc(CO)o1)c1cc(C(=O)OC)ccc1OC)C(C)C a recorded z-score greater than or equal to -2?
FALSE

Has COC(=O)[C@@]1(Cc2ccc(OC)cc2)[C@H]2c3cc(C(=O)N4CCCC4)n(Cc4ccc(O)c(OC)c4)c3C[C@H]2CN1C(=O)c1ccccc1 a recorded z-score greater than or equal to -2?
TRUE

Has COC(=O)[C@@]1(Cc2ccc(OC)cc2)[C@H]2c3cc(C(=O)N4CCCC4)n(CCN4CNCC4=O)c3C[C@H]2CN1C(=O)c1ccccc1 a recorded z-score greater than or equal to -2?
TRUE

Has COCCOC(=O)N1C(=O)[C@@]2(c3cc(C#Cc4ccc(OC)cc4)ccc31)[C@H](c1ccccc1OCCO)N1[C@H](c3ccccc3)[C@H](c3ccccc3)OC(=O)[C@H]1[C@@H]2C(=O)NC[C@H](O)c1ccccc1 a recorded z-score greater than or equal to -2?
TRUE

---

Can you tell me composite z-score for the items I'm about to list?
- experimental-target: Neurogenic locus notch homolog protein 3 (Homo sapiens)
- assay-notes: NOTCH3 binders on small-molecule microarray, primary screen, biochemical, 635/667 nm fluorescence (AID 1096)
- measurement-context: NOTCH3 binding, 635 nm fluorescence, higher = more signal
Answer as a number with no unit attached.

Give the reported composite z-score for this molecule. O=C(CS)NCCCCCCNC(=O)[C@@H]1C[C@@H]2C(=O)NCC(=O)N2[C@@H]1c1cccc(OCCO)c1
0.188

Give the reported composite z-score for this molecule. C=CCOC(=O)[C@H]1[C@@H]2C(=O)O[C@@H](c3ccccc3)[C@@H](c3ccccc3)N2[C@@H](c2ccc(OCCOC(=O)[C@@H]3C[C@@H]4C(=O)N[C@@H](CCCCNC(C)=O)C(=O)N4[C@@H]3c3ccc(O)cc3)cc2)[C@]12C(=O)Nc1ccccc12
1.08

Give the reported composite z-score for this molecule. CC(C)C[C@@H]1NC(=O)[C@@H]2C[C@H](C(=O)NCc3ccc(F)cc3)[C@H](c3cccc(OCCO)c3)N2C1=O
0.552

Give the reported composite z-score for this molecule. CCOC(=O)C[C@H]1[C@H](OC(=O)c2ccc(C(=O)c3ccccc3)cc2)[C@@H](NC(=O)c2ccc3ccccc3c2)c2cc(OCCCO)ccc2N1C(=O)Cc1ccc(OC)cc1
0.479

Give the reported composite z-score for this molecule. C=CCOC(=O)[C@@H]1[C@H]2C(=O)O[C@H](c3ccccc3)[C@H](c3ccccc3)N2[C@H](c2ccc(OCCOC(=O)[C@@H]3C[C@@H]4C(=O)NCC(=O)N4[C@@H]3c3ccc(O)cc3)cc2)[C@@]12C(=O)Nc1ccc(I)cc12
0.859

Give the reported composite z-score for this molecule. NCCCCCNC(=O)[C@@H]1C[C@@H]2C(=O)N[C@@H](Cc3ccccc3)C(=O)N2[C@@H]1c1ccc(O)cc1
0.452
